Test: TLR3 IRF3 reporter activation blockers – cell-based, poly I:C stimulus, luciferase, 10K MLSCN set, primary screen (AID 602277)
Details: HEK293-TLR3 RL24 IRF3 luciferase reporter, at 10 µM, stronger effect = higher value
MEASURED PROPERTY: inhibition (%)

MOLECULE	U	RESULT VALUE
Cc1cc(C(=O)Nc2ccccc2C#N)n(-c2ccccc2)n1	%	20.7
CN(CC(=O)NCCC1=CCCCC1)S(=O)(=O)c1ccc2c(c1)CCC(=O)N2	%	16.8
COc1ccc(OCc2nc(C#N)c(N3CCN(c4ccc(OC)cc4)CC3)o2)cc1	%	3.87
Cc1ccccc1CSc1nnc(C)c(=O)[nH]1	%	13.6
Cc1ccc(C(=O)CSc2n[nH]c(-c3ccco3)n2)cc1C	%	10.8
Nc1nc(Nc2cccc3ccccc23)nc(C2CCCC2=O)n1 (stereo unspecified)	%	13.8
COC(=O)c1ccccc1NC(=O)c1ccc(COc2ccccc2)o1	%	-60.3
CCC(Sc1nc2sc(C(=O)OC)c(C)c2c(=O)n1N)C(=O)NCC1CCCO1 (stereo unspecified)	%	11.6
CC(C)OC(=O)CN1C(=O)C(C)(C)Oc2ccc(C(=O)NC3CC3)cc21	%	17.5
Cc1ccc(C(=O)Nc2ccc3c(c2)OCO3)cc1S(=O)(=O)N1CCCC1	%	-64.5
COc1ccc(C(=O)NCCn2ccc3ccccc32)c(OC)c1	%	-24.1
COc1ccc(S(=O)(=O)N(C)C2CCN(C)CC2)cc1	%	43.8
CCc1nn2c(=O)cc(CSc3nc4sc5c(c4c(=O)n3C)CCCC5)nc2s1	%	-3.25
Cc1ccc2c(c1)N(CC(=O)Nc1ccc3c(c1)OCCO3)C(=O)CO2	%	99.4
Cc1nc2cc(N3CCCCC3)c(NC(=O)c3cccnc3)cc2c(=O)n1Cc1ccccc1	%	-14
Cc1cc(C)n(CCc2nc(-c3cccs3)cs2)n1	%	-42.1
S=c1[nH]nc(Cc2ccccc2)n1-c1ccccc1	%	20.2
O=C(NC1CC1)c1ccc(S(=O)(=O)NCC2CCCCC2)cc1	%	5.07
Cn1nc(C(=O)NC2CCCCCC2)ccc1=O	%	11.7
COC(=O)c1cc2oc(C)cc2n1CC(=O)Nc1ccc(C)c(C)c1	%	4.84
O=C(NC1=NCCS1)c1nc(-c2ccccc2)n(-c2ccccc2)n1	%	11.1
CCCn1cc(SCC(N)=O)c2ccccc21	%	27.7
CN(c1ccccc1C(N)=O)S(=O)(=O)c1ccccc1	%	22.7
CC1CCC(NC(=O)Cn2ncc3ccccc32)CC1 (stereo unspecified)	%	-111
O=C(CSc1nc(-c2ccccc2)cs1)NC(=O)NCc1ccco1	%	3.13
CCOC(=O)Nc1ccc(NS(=O)(=O)c2ccc(C)cc2)cc1	%	9.39
CC(C)Cn1c(N)c(C(=O)NCCN2CCOCC2)c2nc3ccccc3nc21	%	19.8
C1CCc2nnc(-c3nnc4n3CCCCC4)n2CC1	%	10.3
O=C(Nc1ccccc1N1CCN(c2ccc(F)cc2)CC1)c1ccccc1	%	21.1
CCc1cccc(NC(=O)C2CCCN(S(=O)(=O)c3c(C)[nH]c(=O)[nH]c3=O)C2)c1 (stereo unspecified)	%	23.9
CC(C)C(=O)Nc1ccc(C(=O)NCc2cccnc2)cc1	%	-31.6
CC(=O)NS(=O)(=O)c1ccc(NC(=O)c2ccccc2F)cc1	%	8.62
CCC(C)(C)n1nnnc1C(c1cc2cc(C)ccc2[nH]c1=O)N1CCCC1 (stereo unspecified)	%	28.7
Cn1nnnc1SCC(=O)NC1CCCCC1	%	19.8
CC(=O)c1ccccc1OCCn1nnc(-c2ccc(C)cc2)n1	%	14
CCOC(=O)C1CCCN(C/C(O)=C(\C#N)c2nc(-c3ccc(Cl)cc3)cs2)C1 (stereo unspecified)	%	2.09
O=C(O)C1CC(=O)N(CCOc2ccccc2)C1 (stereo unspecified)	%	15.8
c1ccc(-c2cnc(CSc3ncnc4sccc34)o2)cc1	%	-51.1
Cc1ccc(CSc2nc3c(c(=O)[nH]2)CCC3)cc1	%	8.89
COc1ccc(CCn2c(-c3ccco3)nc3nc4ccccc4nc32)cc1	%	-6.71
CCCCC(=O)NCCc1ccc(S(N)(=O)=O)cc1	%	10.4
Cc1ccc(-n2c(-c3ccncc3)nnc2-c2cccs2)cc1	%	12.5
COc1ccc(C)cc1NC(=O)C1CCN(S(=O)(=O)c2cccc3cccnc23)CC1	%	30.4
O=C(O)c1c(Cl)c(Cl)c(Cl)c(Cl)c1C(=O)N1CCOCC1	%	5.92
CC(=O)N1CCN(c2ccc(N=Cc3c(O)n(Cc4ccccc4)c(=O)[nH]c3=O)cc2)CC1	%	22.9
Cc1nc2sc(C(c3ccccc3)N3CCN(c4ccccc4F)CC3)c(O)n2n1 (stereo unspecified)	%	5.62

###

# reported inhibition of aggregation; entries follow
Assay: reduction of polyQ htt aggregates in cells – imaging, exon1htt(103Q)mCFP cells, high-content imaging, primary screen (AID 483);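 also: compound exposure lasted 3 days before fixation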
Conditions: exon1htt(103Q)mCFP cell line, aggregate imaging, at 2 µM; stronger effect = higher value

MOLECULE	U	inhibition of aggregation
Cc1cc2nc(C3CCN(CC4COc5ccccc5O4)CC3)[nH]c2cc1C (stereo not drawn)	%	-2.5
Cc1nc2scc(-c3cccs3)c2c(=O)n1-n1cccc1	%	10.9
CC1CCCc2sc3nc(NCc4ccco4)n4ncnc4c3c21 (stereo not drawn)	%	8.4
O=S(=O)(NCc1ccc(Cl)cc1)c1cnc[nH]1	%	-5.7
N#CC(C(=O)NCCc1ccccc1)c1nc2ccccc2nc1N1CCOCC1 (stereo not drawn)	%	-43.6
Cc1nc2ccccc2c2oc(C(=O)N3CCN(C(=O)c4ccco4)CC3)cc12	%	0
Cc1cc(NC(=O)COC(=O)C2COc3ccccc3O2)no1 (stereo not drawn)	%	-24.5
N#Cc1cc2c(nc1SCC(=O)Nc1sc3c(c1C#N)CCC3)CCCCC2	%	-0.2
CCC(Sc1nc2sc(C(=O)OC)c(C)c2c(=O)n1N)C(=O)NCC1CCCO1 (stereo not drawn)	%	-2.8
Cc1ccc(OCc2nnc(SCC(=O)N3CCOCC3)n2C)cc1	%	6.8
O=C1CC(N2CCOCC2)C(=O)N1c1ccccc1Cl (stereo not drawn)	%	13.9
COC(=O)c1ccc(CSc2nc3c(cnn3-c3ccc(F)cc3)c(=O)[nH]2)o1	%	-1.4
CN(C)c1oc(-c2ccccc2Cl)nc1C#N	%	-4.3
Cc1cc(C)cc(-n2nnc(C(=O)NCc3ccco3)c2N)c1	%	-20.1
CCOC(=O)N1CCC(NC(=O)c2ccc3c(c2)sc2nc(-c4cccc(OC)c4)cn23)CC1	%	8.8
Cc1ccccc1-n1nnc2c(=O)oc3ccccc3c21	%	20.9
CCc1cccc(NC(=O)C2CCCN(S(=O)(=O)c3c(C)[nH]c(=O)[nH]c3=O)C2)c1 (stereo not drawn)	%	0.8
CC(C)CCNC(=O)C(c1cccs1)N(CC1CCCO1)C(=O)Cn1nnc2ccccc21 (stereo not drawn)	%	3.2
COc1ccccc1NC(=O)C1=C(C)Nc2nnnn2C1c1ccccc1OC (stereo not drawn)	%	-7.9
CCc1nc2sc(C)c(C)c2c(=O)n1CCO	%	10.8
Cc1ccc(S(=O)(=O)Nc2nc3ccccc3nc2NCc2ccco2)cc1	%	-2
CCN(CCNC(=O)CS(=O)(=O)Cc1nc(-c2cccc(OC)c2)oc1C)c1ccccc1	%	-16.4
C1CCc2nnc(-c3nnc4n3CCCCC4)n2CC1	%	-5.5

###

Test: TLR3 IRF3 reporter activation blockers – cell-based, poly I:C stimulus, luciferase, 10K MLSCN set, primary screen (AID 602277)
Settings: HEK293-TLR3 RL24 IRF3 luciferase reporter, at 10 µM
The source made the active and inactive calls.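 The calls were made as follows: active = inhibition of the reporter signal at or above 50%; inactive = inhibition below 50%.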
Outcomes: active, inactive

COMPOUND	CAT
COc1cccc(NC(=O)c2nc3nc(C)cc(C(F)F)n3n2)c1	inactive
CCC(C)(C)n1nnnc1C(c1ccc(OC)c(OC)c1)N1CCN(c2ccc(F)cc2)CC1 (stereo unspecified)	inactive
O=C(Nc1ccncc1)C1CCCN(S(=O)(=O)c2cccc3cccnc23)C1 (stereo unspecified)	inactive
COc1cc(SC)ccc1C(=O)Nc1ccon1	inactive
COc1ccc(-n2c(Cc3cccn3C)nnc2SCC(N)=O)cc1	inactive
CCOC(=O)Cn1nc(-c2ccc(Cl)cc2)cc1N	inactive
COc1ccc(OCC(=O)N2CC3(C)CC2CC(C)(C)C3)cc1 (stereo unspecified)	inactive
COc1cc(C2NC(=O)NC(C)=C2C(=O)OCC2CCCO2)ccc1O (stereo unspecified)	inactive
O=C1C(Cl)=C(N2CCOCC2)C(=O)N1CCc1ccccc1	inactive
N#Cc1c2n(c(=S)n(-c3ccccn3)c1=O)CCCCC2	inactive
c1cc(-c2nc3ccccc3o2)nc(-c2nc3ccccc3o2)c1	inactive
Cn1c(=O)[nH]c(=O)c2[nH]c(NCCCN3CCOCC3)nc21	inactive
O=C(CN1C(=O)C2C3C=CC(C3)C2C1=O)NCc1ccc2c(c1)OCO2 (stereo unspecified)	inactive
c1ccc(C(Cc2nc(-c3ccccn3)no2)c2ccccc2)cc1	inactive
O=C(c1ccc(Cl)s1)N1CCN(c2nc3ccccc3s2)CC1	inactive
O=C1NC(c2cccnc2)C(C(=O)c2cccs2)C(O)(C(F)(F)F)N1 (stereo unspecified)	inactive
O=C(NC1CCCc2ccccc21)C1CCN(c2nnc(-n3cccc3)s2)CC1 (stereo unspecified)	inactive
CCCCc1cc(=O)oc2cc(OCC(=O)N(CC)CC)c(Cl)cc12	inactive
Cc1c(C(=O)N2CCOCC2)oc2ccc(S(=O)(=O)N3CCCC3)cc12	inactive
Cc1cc(NCCN2CCCCC2)n2c(nc3ccccc32)c1C#N	inactive
COc1ccccc1CC(=O)NCc1ccc2c(c1)OCO2	inactive
CC(=O)N1CCN(Cc2ccc(Br)s2)CC1	inactive
O=C(c1cc(-c2cccc(O)c2)on1)N1CCN(C(c2ccccc2)c2ccccc2)CC1	inactive
COCc1[nH]nc2c1C(c1cc(OC)c(O)c(OC)c1)C(C#N)=C(N)O2 (stereo unspecified)	inactive
O=S(=O)(NCC1CCCO1)c1cc(Cl)ccc1Br (stereo unspecified)	inactive
CCC(CC)n1[nH]c(=O)c2c(C)cc(C)nc21	inactive
COc1ccccc1N1CCN(Cc2nc(N)nc(Nc3ccc(C)c(Cl)c3)n2)CC1	inactive
O=C(CCn1c(=O)oc2ccccc21)N1CCCCCC1	inactive
Cc1onc(-c2ccccc2Cl)c1C(=O)NCc1cccnc1	inactive
COc1ccc(C(=O)Nc2ccc(C)cn2)c(OC)c1	active
C=CCn1c(SCC(=O)NC2CCCCC2)nnc1-c1sc(N)nc1C	inactive
CCOC(=O)N1CCN(C(=O)COc2ccc(S(=O)(=O)NC3CCCCC3)cc2C)CC1	inactive
O=C(O)[C@@H]1CCCN1c1ncnc2sc3c(c12)CCC3	inactive
CNC(=O)CSc1nnc(-c2cc3c(C)nn(-c4ccccc4)c3s2)n1C	inactive
O=C(C1CCCN(S(=O)(=O)c2cccs2)C1)N1CCc2ccccc2C1 (stereo unspecified)	inactive
COc1cccc(NC(=O)NC2(C(F)(F)F)Oc3ccccc3O2)c1	inactive
CCOC(=O)/C=C1\CC(=O)Nc2nonc2N1	inactive
CC(C)CNc1oc(-c2ccc(F)cc2)nc1C#N	inactive
CCOC(=O)c1cc2sc(C)cc2n1CC(=O)Nc1cccc(C)c1C	inactive
CCOc1ccccc1NC(=O)CN(c1ccc(C)cc1)S(=O)(=O)c1c(C)noc1C	inactive
CC(=O)c1ccc(OC(=O)c2cccs2)cc1	inactive
CS(=O)(=O)NCC(c1cccnc1)N1CCN(c2ccc(F)cc2)CC1 (stereo unspecified)	inactive
O=C(c1cc(S(=O)(=O)N2CCOCC2)ccc1F)N1CCCc2ccccc21	inactive
Oc1ccccc1-c1nnc(COc2ccc(Cl)cc2Cl)o1	inactive
Cc1cccc(NC(=O)CC(C)(C)C)c1	inactive
CC(C)Cc1nc(S(=O)(=O)c2ccc(Cl)cc2)c(N2CCOCC2)o1	inactive
